Experimental Details: in vitro
Test Parameters: human, h1 hela cells
# maps each entry to its CC50

Would you please look over these solved cases?
COc1ncnc2c1ccn2[C@@H]1O[C@](F)(CO)C[C@H]1O	> 99 µM
OC[C@@]1(F)O[C@@H](n2cc(Cl)c3cncnc32)[C@H](O)[C@@H]1O	10 to 99 µM
N#Cc1cn([C@@H]2O[C@](F)(CO)[C@@H](O)[C@H]2O)c2nc[nH]c(=O)c12	> 99 µM

Q: Supply reported CC50 belonging to this molecule: `Nc1nc(Cl)nc2c1ncn2[C@@H]1O[C@](F)(CO)[C@@H](O)[C@H]1O`
Result: 10 to 99 µM

Q: Supply reported CC50 belonging to this molecule: CNc1nc(N)nc2c1ncn2[C@@H]1O[C@](F)(COP(=O)(N[C@@H](C)C(=O)OC(C)C)Oc2ccccc2)[C@@H](O)[C@]1(F)Cl (single isomer, unassigned) [Example 58]
Result: > 99 µM

----------
Experimental Details: in vitro
Test Parameters: human, hela-ace2 cells
# maps each entry to its CC50 at 24 h

Would you please look over these solved cases?
NC(=O)c1cn([C@@H]2O[C@](F)(CO)[C@@H](O)[C@H]2O)c2ncnc(N)c12	< 1 µM
Nc1ncnc2c1ccn2[C@@H]1C[C@](F)(CO)[C@@H](O)[C@H]1O	10 to 99 µM
NC(=O)c1cn([C@@H]2O[C@](F)(CO)[C@@H](O)[C@H]2O)c2ncncc12	1 to 10 µM
Nc1ncnc2c1c(F)cn2[C@@H]1O[C@](F)(CO)[C@@H](O)[C@H]1O	< 1 µM

Q: Supply reported CC50 at 24 h belonging to this molecule: `Nc1ncnc2c1ccn2[C@@H]1O[C@@](F)(CO)C[C@H]1O`
Result: > 99 µM

Q: Supply reported CC50 at 24 h belonging to this molecule: `Nc1nc2c(ncn2[C@@H]2O[C@](F)(CO)[C@@H](O)C2(F)F)c(=O)[nH]1`
Result: > 99 µM

Q: Supply reported CC50 at 24 h belonging to this molecule: `OC[C@@]1(F)O[C@@H](n2ccc3cncnc32)[C@H](O)[C@@H]1O`
Result: 1 to 10 µM

Q: Supply reported CC50 at 24 h belonging to this molecule: `C#C[C@]1(O)[C@H](n2ccc3c(NCCC)ncnc32)O[C@](F)(CO)[C@H]1O`
Result: > 99 µM

----------
# maps each entry to its CC50
Experimental Details: in vitro
Test Parameters: human, hct-8 cells

Would you please look over these solved cases?
OC[C@@]1(F)O[C@@H](n2ccc3c(F)ncnc32)[C@H](O)[C@@H]1O	10 to 99 µM
O=c1[nH]cnc2c1c(F)cn2[C@@H]1O[C@](F)(CO)[C@@H](O)[C@H]1O	> 99 µM

Now for another entry.
Q: Supply reported CC50 belonging to this compound: `Nc1ncnc2c1c(Cl)cn2[C@@H]1O[C@](F)(CO)[C@@H](O)[C@H]1O`
Result: < 1 µM

----------
Experimental Details: Cytotoxicity, HFF
Assay type: cell-based
Test Parameters: human, hff cells; read-out: HCMV/HFF CC50
Quantity Kind: CC50

OC[C@@]1(F)O[C@@H](n2ccc3c(Cl)ncnc32)[C@H](O)[C@@H]1O	10 to 99 µM
Nc1ncnc2c1ccn2[C@@H]1O[C@](F)(CO)[C@@H](O)[C@H]1O	1 to 10 µM
COc1ncnc2c1c(F)cn2[C@@H]1O[C@](F)(CO)[C@@H](O)[C@H]1O	> 99 µM

Q: Supply reported CC50 belonging to this molecule: `[N-]=[N+]=N[C@]1(CO)O[C@@H](n2ccc3c(N)ncnc32)[C@@](F)(Cl)[C@@H]1O`
Result: > 99 µM

Q: Supply reported CC50 belonging to this molecule: `NC(=O)c1cn([C@@H]2O[C@](F)(CO)[C@@H](O)[C@H]2O)c2ncncc12`
Result: 10 to 99 µM

Q: Supply reported CC50 belonging to this molecule: `Nc1ncnc2c1ccn2[C@@H]1O[C@](F)(CO)[C@@H](O)[C@]1(F)Cl`
Result: > 99 µM

Q: Supply reported CC50 belonging to this molecule: `Nc1ncnc2c1ccn2[C@@H]1O[C@@](CO)(CF)[C@@H](O)[C@H]1O`
Result: > 99 µM

Q: Supply reported CC50 belonging to this molecule: `OC[C@@]1(F)O[C@@H](n2cc(Br)c3cncnc32)[C@H](O)[C@@H]1O`
Result: > 99 µM

----------
# maps each entry to its CC50
Experimental Details: in vitro
Test Parameters: human, mrc5 cells

OC[C@@]1(F)O[C@@H](n2ccc3c(Cl)ncnc32)[C@H](O)[C@@H]1O	> 99 µM

Q: Supply reported CC50 belonging to this compound: `Nc1ncnc2c1c(F)cn2[C@@H]1O[C@](F)(CO)[C@@H](O)[C@H]1O`
Result: 1 to 10 µM

Q: Supply reported CC50 belonging to this compound: `O=c1[nH]cnc2c1c(F)cn2[C@@H]1O[C@](F)(CO)[C@@H](O)[C@H]1O`
Result: > 99 µM

Q: Supply reported CC50 belonging to this compound: `OC[C@@]1(F)O[C@@H](n2cc(Br)c3cncnc32)[C@H](O)[C@@H]1O`
Result: > 99 µM

Q: Supply reported CC50 belonging to this compound: `NC(=O)c1cn([C@@H]2O[C@](F)(CO)[C@@H](O)[C@H]2O)c2ncnc(N)c12`
Result: 1 to 10 µM

----------
Experimental Details: in vitro
Test Parameters: human, h1 hela cells
# maps each entry to its CC50

Would you please look over these solved cases?
O=c1[nH]cnc2c1c(F)cn2[C@@H]1O[C@](F)(CO)[C@@H](O)[C@H]1O	> 99 µM
C[C@]1(Cl)[C@H](n2cnc3c(=O)[nH]c(N)nc32)O[C@](F)(CO)[C@H]1O	10 to 99 µM
Nc1ncnc2c1ccn2[C@@H]1C[C@](F)(CO)[C@@H](O)[C@H]1O	10 to 99 µM
Cc1nc(Cl)c2ccn([C@@H]3O[C@](F)(CO)[C@@H](O)[C@H]3O)c2n1	> 99 µM
Nc1ncnc2c1ccn2[C@@H]1O[C@@](CO)(CF)[C@@H](O)[C@H]1O	> 99 µM

Q: Supply reported CC50 belonging to this molecule: `NC(=O)c1cn([C@@H]2O[C@](F)(CO)[C@@H](O)[C@H]2O)c2ncncc12`
Result: 10 to 99 µM

Q: Supply reported CC50 belonging to this molecule: `CCOc1nc(N)nc2c1ncn2[C@@H]1O[C@](F)(CO)[C@@H](O)[C@]1(F)Br`
Result: 10 to 99 µM

Q: Supply reported CC50 belonging to this molecule: `Nc1ncnc2c1ccn2[C@@H]1O[C@](F)(CO)[C@@H](O)[C@H]1O`
Result: 1 to 10 µM

Q: Supply reported CC50 belonging to this molecule: `C#C[C@]1(O)[C@H](n2ccc(N)nc2=O)O[C@](F)(CO)[C@H]1O`
Result: 10 to 99 µM

Q: Supply reported CC50 belonging to this molecule: `CCOc1nc(N)nc2c1ncn2[C@@H]1O[C@](F)(CO[P@@](=O)(N[C@@H](C)C(=O)OC(C)C)Oc2ccccc2)[C@@H](O)[C@]1(F)Cl`
Result: 10 to 99 µM

Q: Supply reported CC50 belonging to this molecule: `OC[C@]1(F)O[C@@H](n2ccc3c(Cl)ncnc32)[C@H](O)[C@@H]1O`
Result: > 99 µM

Q: Supply reported CC50 belonging to this molecule: `COc1ncnc2c1c(C(N)=O)cn2[C@@H]1O[C@](F)(CO)[C@@H](O)[C@H]1O`
Result: 10 to 99 µM

Q: Supply reported CC50 belonging to this molecule: `N#C[C@@]1(c2cnc3c(N)ncnn23)O[C@](F)(CO)[C@@H](O)[C@H]1O`
Result: > 99 µM

Q: Supply reported CC50 belonging to this molecule: `Cc1ncnc2c1ccn2[C@@H]1O[C@](F)(CO)[C@@H](O)[C@H]1O`
Result: > 99 µM

Q: Supply reported CC50 belonging to this molecule: `N#Cc1cn([C@@H]2O[C@](F)(CO)[C@@H](O)[C@H]2O)c2ncnc(N)c12`
Result: 1 to 10 µM

Q: Supply reported CC50 belonging to this molecule: CCOc1nc(N)nc2c1ncn2[C@@H]1O[C@](F)(COP(=O)(N[C@@H](C)C(=O)OC(C)C)Oc2ccccc2)[C@@H](O)C1(F)F (stereo partly drawn)
Result: 10 to 99 µM

Q: Supply reported CC50 belonging to this molecule: `Nc1ncnc2c1cnn2[C@@H]1O[C@](F)(CO)[C@@H](O)[C@H]1O`
Result: 1 to 10 µM

Q: Supply reported CC50 belonging to this molecule: `Nc1nc(Cl)c2ccn([C@@H]3O[C@](F)(CO)[C@@H](O)[C@H]3O)c2n1`
Result: 10 to 99 µM

Q: Supply reported CC50 belonging to this molecule: `OC[C@@]1(F)O[C@@H](n2ccc3cncnc32)[C@H](O)[C@@H]1O`
Result: 10 to 99 µM

Q: Supply reported CC50 belonging to this molecule: `CNc1ncnc2c1c(F)cn2[C@@H]1O[C@](F)(CO)[C@@H](O)[C@H]1O`
Result: 10 to 99 µM

Q: Supply reported CC50 belonging to this molecule: C[C@H](NP(=O)(OC[C@@]1(F)O[C@@](C#N)(c2cnc3c(N)ncnn23)[C@H](O)[C@@H]1O)Oc1cccc2ccccc12)C(=O)OCC(C)(C)C (stereo partly drawn)
Result: 10 to 99 µM

Where do these numbers come from? They come from patent US20260325561A1.
